# ASSAY INFO: NCI Yeast Anticancer Drug Screen. Data for the rad50 strain (AID 155);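 note: 0% = growth of vehicle-only cultures of the same strain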
# SETUP CONDITIONS: S. cerevisiae rad50 strain growth inhibition; at 50.0 µM
This is part of a sample that, as a whole, favours compounds with a hit. Of some 79,000 tested, about 15% had one in any assay. The source made the active and inactive calls. Cut-off read from the data, not from the text of the source: active = growth inhibition above about 70%; inactive = the rest.
Could you please pick one outcome from this set? Y = active, N = inactive

Enquiry: Per the records of this test, what outcome belongs to CC1CCN(CCC(=O)c2ccc([N+](=O)[O-])cc2)CC1 ?
Return: N

====

# ASSAY INFO: NCI Yeast Anticancer Drug Screen. Data for the wt2 strain (AID 169);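 note: 0% = growth of vehicle-treated yeast cultures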
# SETUP CONDITIONS: S. cerevisiae wt2 strain growth inhibition; at 11.0 µM; stronger effect = higher value
The panel holds about 79,000 compounds, 15% with a hit somewhere; the sample as a whole holds those more often.
MEASUREMENT TYPE: growth inhibition (%)
Answers are plain numbers, in %.

Some molecules with recorded growth inhibition:
MOLECULE	READING UNIT	growth inhibition
CCC(=O)C1=C(O)c2cc(OC)ccc2CC1C(=O)OC (stereo not given)	%	8
O=C(NCCCCN1CC2CCCC2C1)C(C1CCCCC1)C1CCCCC1 (stereo not given)	%	25
Nc1ccc(N=Nc2ccc(-c3ccc(O)cc3)cc2)c2ccc(S(=O)(=O)O)cc12	%	5
O=[N+]([O-])c1ccc2[nH]c3c(-c4ccccc4)nccc3c2c1	%	96
CC1(C2CC2)C(C#N)(C#N)C1(C#N)C#N	%	-1

Batch lookup, growth inhibition per entry.
1. CCCCCCCN(CCCCCCC)CC(=O)c1ccc2cc(Cl)c3ccccc3c2c1
2. O=C(O)c1c2ccc(Cl)cc2nc2[nH]c(=O)[nH]c(=O)c12
3. O=c1c2ccccc2nc(-c2ccc(Cl)cc2)n1O
4. CCCCCCCCCCCCCCN
5. COc1cc2oc3ccccc3c(=O)c2cc1CSc1ccccc1N

Return:
1: 98; 2: -25; 3: 96; 4: 4; 5: -2

====

# ASSAY INFO: NCI Yeast Anticancer Drug Screen. Data for the rad18 strain (AID 177)
# SETUP CONDITIONS: S. cerevisiae rad18 mutant growth inhibition; at 11.0 µM; stronger effect = higher value
About 79,000 compounds went through this panel and 15% of them were active in at least one assay; those are over-represented in the sample as a whole.
met means recorded growth inhibition is 70% or above; not met means it is below 70%.

MOLECULE	CATEGORY
O=C(/N=N/C(=O)Oc1ccccc1)Oc1ccccc1	not met
CC1CN(/N=C\c2ccc([N+](=O)[O-])o2)C(=O)O1 (stereo not drawn)	met

Enquiry: Is growth inhibition for O=C1C(=O)c2cccc([N+](=O)[O-])c2-c2ccccc21 at or above 70%?
Return: not met

Enquiry: Queued: CCCCCCCCCCCCCCCCCCNC(=S)/N=C/c1c(O)c2ccccc2[nH]c1=O
Return: not met

====

# ASSAY INFO: NCI Yeast Anticancer Drug Screen. Data for the rad50 strain (AID 155);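 note: 0% = growth of vehicle-only cultures of the same strain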
# SETUP CONDITIONS: S. cerevisiae rad50 strain growth inhibition; at 50.0 µM (retest, dose inferred, filed as 5.0)
About 79,000 compounds went through this panel and 15% of them were active in at least one assay; those are over-represented in the sample as a whole. Calls of active or inactive are those of the source. Cut-off read from the data, not from the text of the source: active = growth inhibition above about 70%; inactive = the rest.
Could you please pick one outcome from this set? TRUE (active), FALSE (inactive)

Enquiry: Per the records of this test, what outcome belongs to CCOC(=O)C(Cc1c2ccccc2cc2ccccc12)(NC(C)=O)C(=O)OCC ?
Return: FALSE

Enquiry: Queued: O=C(C#Cc1ccccc1)Nc1ccccc1
Return: FALSE
